Source: patent US20160068605A1

- TARGET: T1, cell-surface CD3 epsilon on primary human T cells (human, UniProt P07766 23-207)
- T1 construct: whole, on cells; part of the CD3/TCR complex on the cells
- T1 sequence (P07766 23-207): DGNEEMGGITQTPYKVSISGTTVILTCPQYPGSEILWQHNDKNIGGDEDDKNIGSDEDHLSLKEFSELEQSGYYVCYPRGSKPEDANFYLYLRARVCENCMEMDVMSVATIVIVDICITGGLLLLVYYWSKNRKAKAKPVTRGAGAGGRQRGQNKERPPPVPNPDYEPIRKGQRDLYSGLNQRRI
- PROTOCOL TEXT: flow cytometry on primary human T cells, anti-human IgG Alexa Fluor 647; MFI
VALUE TYPE: binding result

| BINDER | VALUE TYPE | VALUE OBSERVED |
| --- | --- | --- |
| CD3B156 (antibody, IgG1, V domains shown, IgG1 constant region with L234A, L235A, F405L; human lambda light chain constant region) VH: EVQLVESGGGLVQPGGSLKLSCAASGFTFNTYAMNWVRQASGKGLEWVGRIRSKYNGYATYYAASVKGRFTISRDDSKNTAYLQMNSLKTEDTAVYYCTRHGNFGNSYVSWFAYWGQGTLVTVSS VL: QSVLTQPPSVSAAPGQKVTISCRSSTGAVTTSNYANWVQQLPGTAPKGLIGGTNKRAPGIPDRFSGSKSGTSATLGITGLQTGDEADYYCALWYSNLWVFGGGTKLTVL | binding result | binds |
| CD3B158 (antibody, IgG1, V domains shown, IgG1 constant region with L234A, L235A, F405L; human lambda light chain constant region) VH: EVQLVESGGGLVQPGGSLKLSCAASGFTFNTYAMNWVRQASGKGLEWVGRIRSKYNGYATYYAASVKGRFTISRDDSKNTAYLQMNSLKTEDTAVYYCTRHGNFGNSYVSWFAYWGQGTLVTVSS VL: QTVVTQEPSLTVSPGGTVTLTCRSSTGAVTTSNYANWVQQKPGQAPRGLIGGTNKRAPGTPARFSGSLLGGKAALTLSGVQPEDEAEYYCALWYSNLWVFGGGTKLTVL | binding result | binds |
| CD3B155 (antibody, IgG1, V domains shown, IgG1 constant region with L234A, L235A, F405L; human lambda light chain constant region) VH: EVQLVESGGGLVQPGGSLKLSCAASGFTFNTYAMNWVRQASGKGLEWVGRIRSKYNGYATYYAASVKGRFTISRDDSKNTAYLQMNSLKTEDTAVYYCTRHGNFGNSYVSWFAYWGQGTLVTVSS VL: QAVVTQEPSLTVSPGGTVTLTCRSSTGAVTTSNYANWVQQKPGQAPRGLIGGTNKRAPGTPARFSGSLLGGKAALTLSGAQPEDEAEYYCALWYSNLWVFGGGTKLTVL | binding result | binds |
